B1: HDV Ribozyme (parent)
chain: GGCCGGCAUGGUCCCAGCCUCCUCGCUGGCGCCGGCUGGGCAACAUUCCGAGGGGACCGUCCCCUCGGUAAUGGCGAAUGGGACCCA

Variants of: B1
Assay: self-cleavage, relative activity (ratio to wild type); higher = more cleavage; co-transcriptional
The threshold is inclusive: self-cleavage of exactly 0.2 counts as Criterion met; values below receive Criterion not met.

Please review the entries below; each comes with its answer.
[[record]]
sequence_variant = "C24U C48G"
class_assignment = "Criterion met"

[[record]]
sequence_variant = "G68A C75G"
class_assignment = "Criterion not met"

[[record]]
sequence_variant = "G39A G40U"
class_assignment = "Criterion met"

[[record]]
sequence_variant = "G5C C86G"
class_assignment = "Criterion not met"

[[record]]
sequence_variant = "C15G C75U"
class_assignment = "Criterion met"


State whether the measured self-cleavage reaches 0.2, counting equality as reaching it, for C4U C18U Criterion met

State whether the measured self-cleavage reaches 0.2, counting equality as reaching it, for A42C G55C Criterion met

State whether the measured self-cleavage reaches 0.2, counting equality as reaching it, for G1C U20C Criterion not met

State whether the measured self-cleavage reaches 0.2, counting equality as reaching it, for C44A G76C Criterion met

State whether the measured self-cleavage reaches 0.2, counting equality as reaching it, for C44A C85U Criterion met

State whether the measured self-cleavage reaches 0.2, counting equality as reaching it, for A43C G53A Criterion met

State whether the measured self-cleavage reaches 0.2, counting equality as reaching it, for G35C G67A Criterion not met

State whether the measured self-cleavage reaches 0.2, counting equality as reaching it, for C4G G68C Criterion met

State whether the measured self-cleavage reaches 0.2, counting equality as reaching it, for A8U A70G Criterion met

State whether the measured self-cleavage reaches 0.2, counting equality as reaching it, for C30U U60G Criterion met

State whether the measured self-cleavage reaches 0.2, counting equality as reaching it, for C7G C44A Criterion not met
